experiment: Cellular uptake in human OVCAR3 cell cytoplasm assessed as per 10^3 cells after 24 hrs by gamma counting; format: ADME, cell-based; conditions: ovcar-3, 24 h
Record form. Attribute: Drug uptake. Fill in for each entry.
One number for each entry, in cpm.

molecule	assay metric	data value
CC(C)(C)c1cc(C(C)(C)C)c2c(c1F)COP(=O)(O[C@H]1C[C@H](n3cc([125I])c(=O)[nH]c3=O)O[C@@H]1CO)O2 (stereo not given in full)	Drug uptake	2.7
Cc1cccc2c1OP(=O)(O[C@H]1C[C@H](n3cc([125I])c(=O)[nH]c3=O)O[C@@H]1CO)OC2 (stereo not given in full)	Drug uptake	1.4
Cc1cccc2c1OP(=O)(OC[C@H]1O[C@@H](n3cc([125I])c(=O)[nH]c3=O)C[C@@H]1OP1(=O)OCc3cccc(C)c3O1)OC2 (stereo not given in full)	Drug uptake	13.4
O=c1[nH]c(=O)n([C@H]2C[C@H](OP3(=O)OCc4ccccc4O3)[C@@H](COP3(=O)OCc4ccccc4O3)O2)cc1[125I] (stereo not given in full)	Drug uptake	37.3

// next item, Drug uptake requested
Give the measured Drug uptake of O=c1[nH]c(=O)n([C@H]2C[C@H](OP3(=O)OCc4ccccc4O3)[C@@H](CO)O2)cc1[125I] (stereo not given in full) .
2.7

The measured values listed here are drawn from ChEMBL document CHEMBL2146438.
